Reference source: BindingDB's records for doi:10.1021/jm960276a

experimentalTarget: Integrin alpha-IIb/beta-3 (Homo sapiens, UniProt P08514+P05106)
Sequence (P05106 27-788 limits assumed): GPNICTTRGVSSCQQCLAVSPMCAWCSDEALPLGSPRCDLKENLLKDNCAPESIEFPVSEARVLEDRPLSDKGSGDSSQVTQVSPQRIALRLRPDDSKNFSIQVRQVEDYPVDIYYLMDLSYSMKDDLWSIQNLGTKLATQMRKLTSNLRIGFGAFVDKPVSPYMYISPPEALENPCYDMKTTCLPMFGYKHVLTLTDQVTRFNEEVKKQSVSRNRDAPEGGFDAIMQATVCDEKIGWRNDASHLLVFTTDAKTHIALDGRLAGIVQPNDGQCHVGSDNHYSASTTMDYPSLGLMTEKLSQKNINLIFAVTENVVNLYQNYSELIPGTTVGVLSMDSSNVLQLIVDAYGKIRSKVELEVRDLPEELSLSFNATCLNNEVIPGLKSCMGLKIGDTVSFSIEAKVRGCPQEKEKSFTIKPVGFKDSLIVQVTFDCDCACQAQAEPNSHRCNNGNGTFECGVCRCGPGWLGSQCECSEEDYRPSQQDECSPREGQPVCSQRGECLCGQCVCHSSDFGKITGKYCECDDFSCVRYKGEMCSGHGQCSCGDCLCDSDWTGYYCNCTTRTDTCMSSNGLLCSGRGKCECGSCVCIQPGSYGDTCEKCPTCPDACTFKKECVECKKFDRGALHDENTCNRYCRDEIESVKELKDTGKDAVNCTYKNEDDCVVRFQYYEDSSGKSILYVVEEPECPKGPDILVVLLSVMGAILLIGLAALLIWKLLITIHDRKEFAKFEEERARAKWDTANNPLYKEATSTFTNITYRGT
Sequence (P08514 32-887 limits assumed): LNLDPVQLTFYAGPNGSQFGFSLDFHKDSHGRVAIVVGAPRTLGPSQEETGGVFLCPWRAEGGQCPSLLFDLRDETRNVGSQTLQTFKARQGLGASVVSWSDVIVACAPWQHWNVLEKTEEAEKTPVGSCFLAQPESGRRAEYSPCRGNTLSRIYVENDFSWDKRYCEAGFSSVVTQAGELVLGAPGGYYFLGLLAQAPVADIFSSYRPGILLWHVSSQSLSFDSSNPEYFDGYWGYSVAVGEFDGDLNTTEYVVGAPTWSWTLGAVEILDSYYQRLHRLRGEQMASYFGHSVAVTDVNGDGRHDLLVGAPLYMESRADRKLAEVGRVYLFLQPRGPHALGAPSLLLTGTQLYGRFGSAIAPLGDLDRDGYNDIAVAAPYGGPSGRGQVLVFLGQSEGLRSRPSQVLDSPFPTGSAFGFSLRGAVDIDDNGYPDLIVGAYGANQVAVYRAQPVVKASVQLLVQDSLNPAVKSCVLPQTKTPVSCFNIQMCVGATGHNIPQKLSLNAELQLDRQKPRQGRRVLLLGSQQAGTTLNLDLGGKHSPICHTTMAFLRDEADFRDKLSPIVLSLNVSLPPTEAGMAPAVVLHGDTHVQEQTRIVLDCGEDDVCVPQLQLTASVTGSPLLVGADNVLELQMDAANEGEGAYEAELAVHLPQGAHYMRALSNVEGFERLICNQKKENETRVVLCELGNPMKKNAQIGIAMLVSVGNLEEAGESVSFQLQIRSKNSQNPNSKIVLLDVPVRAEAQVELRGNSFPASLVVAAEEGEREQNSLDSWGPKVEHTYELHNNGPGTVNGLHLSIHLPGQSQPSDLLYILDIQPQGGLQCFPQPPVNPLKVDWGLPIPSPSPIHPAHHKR
Sequence (P08514 891-1039 limits assumed): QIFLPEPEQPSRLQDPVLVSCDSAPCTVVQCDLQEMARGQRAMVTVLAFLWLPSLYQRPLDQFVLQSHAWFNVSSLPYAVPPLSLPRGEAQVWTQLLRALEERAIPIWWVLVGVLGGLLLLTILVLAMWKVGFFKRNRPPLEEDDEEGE
assayInfo: Inhibition of human platelet aggregation mediated by alpha llb/beta3 interaction with fibrinogen
Square brackets hold non-standard residues; d marks the D form. Peptide text beside a SMILES is read from it. NMeR = CN[C@@H](CCCNC(=N)N)C(=O)O; 3Amb = NCc1cccc(C(=O)O)c1; dAbu = CC[C@@H](N)C(=O)O
Reported IC50 values for a set of molecules
experimentalReadout: IC50

- molecule: "N=C(N)NCCC[C@H](NC(=O)[C@H](CC(=O)O)NC(=O)CNC(=O)[C@@H](N)CCCNC(=N)N)C(=O)NCC(=O)N[C@@H](CC(=O)O)C(=O)O (H-RGDRGD-OH)"
  experimentalTarget: "Integrin alpha-IIb/beta-3 (Homo sapiens, UniProt P08514+P05106)"
  result: "> 100 µM"
- molecule: "CC[C@H]1NC(=O)c2cccc(c2)CNC(=O)[C@H](CC(=O)O)NC(=O)CNC(=O)[C@H](CCCN=C(N)N)N(C)C1=O [DMP-728] (cyclo([NMeR]GD[3Amb][dAbu]))"
  experimentalTarget: "Integrin alpha-IIb/beta-3 (Homo sapiens, UniProt P08514+P05106)"
  result: "0.02 µM"
- molecule: "N=C(N)NCCC[C@@H]1NC(=O)[C@H](CC(=O)O)NC(=O)CNC(=O)[C@H](CCCNC(=N)N)NC(=O)[C@@H](CC(=O)O)NC(=O)CNC1=O"
  experimentalTarget: "Integrin alpha-IIb/beta-3 (Homo sapiens, UniProt P08514+P05106)"
  result: "> 100 µM"
- molecule: "N=C(N)NCCC[C@@H]1NC(=O)[C@H](CC(=O)O)NC(=O)CNC(=O)[C@H](CCCNC(=N)N)NC(=O)[C@H](CC(=O)O)NC(=O)CNC1=O"
  experimentalTarget: "Integrin alpha-IIb/beta-3 (Homo sapiens, UniProt P08514+P05106)"
  result: "> 100 µM"
